Tested on: SF-539
ASSAY DETAILS: NCI tumour cell line growth inhibition, 48 h
Where a name gives a salt, the structure may show the parent alone. Calls of active or inactive are those of the source. Cut-off read from the data, not from the text of the source: active = GI50 up to about 1.1 µM and inactive = higher.
VALUE TYPE: GI50

COMPOUND: COC(=O)/C=C\C(C#N)(C#N)/N=C/c1ccc(OC)cc1
RECORDED RESULT: 4.99 µM (inactive)

COMPOUND: COc1cccc2cc(C(=O)O)c(=O)oc12
RECORDED RESULT: > 100 µM (inactive)

COMPOUND: Brc1ccc(C2=NCSC(c3ccc(Br)cc3)=N2)cc1
RECORDED RESULT: 31.5 µM (inactive)

COMPOUND: Nc1nc2c(c(=O)[nH]1)C(c1ccccc1)CC(=O)N2 (stereo not given)
RECORDED RESULT: > 100 µM (inactive)

COMPOUND: Cc1ccc(S(=O)(=O)/N=C2/N(C)CCCS2(=O)=O)cc1
RECORDED RESULT: > 100 µM (inactive)

COMPOUND: CCOP(=O)(OCC)/C(=C/c1cccs1)CC(C)=O
RECORDED RESULT: > 100 µM (inactive)

What value of measured GI50 is listed for `CCOC(=O)/C(C(N)=O)=C(/O)c1cnccn1` ? > 100 µM (inactive)

Note, next up: `CC(C)(C)[Si](C)(C)O/N=C\c1cccc(O[Si](C)(C)C(C)(C)C)c1` 21.9 µM (inactive)

Would you mind doing CN1C[C@H](C(=O)N[C@]2(C)O[C@@]3(O)[C@@H]4CCCN4C(=O)[C@H](Cc4ccccc4)N3C2=O)C=C2c3cccc4[nH]cc(c34)C[C@H]21 [ERGOTAMINE TARTRATE] as well? 12.1 µM (inactive)

Subsequent entry: `Cc1ccc(Nc2nc3[nH]ccc3c(=O)[nH]2)cc1` > 100 µM (inactive)

And `O=C(c1ccccc1)N1C(=O)N(c2ccccc2)C(=N/c2ccccc2)/C1=N\c1ccccc1` ? > 100 µM (inactive)

Next entry: `CN(C)CCNC(=O)C(C)(C)Oc1ccc(C(=O)c2ccc(Cl)cc2)cc1Cl` 9.46 µM (inactive)

Can you check NCCCCC(N)C(=O)NCCNc1ccc(NCCNC(=O)C(N)CCCCN)c2c1C(=O)c1ccccc1C2=O (stereo not given) next? 7.62 µM (inactive)

Repeat for the following compound: `Cc1c2cc[n+](C)cc2c(C)c2c1oc1ccccc12` 2.24 µM (inactive)

Would you mind doing `COC(=O)c1c(O)ccc2c1c1cc3ccccc3c(O)c1n2CCc1ccc(OC)c(OC)c1` as well? 98.9 µM (inactive)
